- Species on record: Rattus norvegicus
- TEST: Open TG-GATES - Regimen: Daily Repeat
- Type: toxicity, organism-based, Sprague-Dawley
- Parameters: regimen Daily Repeat, gender Male, age 6 weeks
- ASSAY_SETUP: in vivo, po, 0 mg/kg, […], tissue Blood, route gavage, dose level Control, time 14 day
Exercise: state measured MCV for each of the compounds provided.
Numbers only, in fL.

>  <COMPOUND>
COc1ccc(Cl)cc1C(=O)NCCc1ccc(S(=O)(=O)NC(=O)NC2CCCCC2)cc1 [GLYBURIDE]

>  <MCV, fL>
58.5

$$$$
>  <COMPOUND>
O=C1CN(/N=C/c2ccc(-c3ccc([N+](=O)[O-])cc3)o2)C(O)=N1

>  <MCV, fL>
61.1

$$$$
>  <COMPOUND>
Cn1c(=O)c2c(ncn2C)n(C)c1=O

>  <MCV, fL>
59.8

$$$$
>  <COMPOUND>
Cc1cnc(NC(=O)C2=C(O)c3ccccc3S(=O)(=O)N2C)s1

>  <MCV, fL>
59.1

$$$$

// each compound listed below needs its MCV
1. Cn1cnc([N+](=O)[O-])c1Sc1ncnc2nc[nH]c12
2. C=CCO
3. O=C1NC(=O)C(c2ccccc2)(c2ccccc2)N1
4. O=P1(N(CCCl)CCCl)NCCCO1 (stereo not drawn) [CYCLOPHOSPHAMIDE ANHYDROUS]

-- reply
[59.4, 58.5, 59.2, 60]
